Assay: Cytotoxicity assay HEK293
Type: cell-based, human
Conditions: human, HEK293 cells, mean (n = 2), read-out: Cyto. IC50 (concentration of compound at 50% cytotoxicity)

compound: COc1cccc2c(C(=O)C(=O)NCCCNCCCCCCNCCCNC(=O)C(=O)c3c[nH]c4c(OC)cccc34)c[nH]c12.O=C(O)C(F)(F)F.O=C(O)C(F)(F)F [Compound 22a]
qualifierSign: >
IC50 (µM): 37
//
compound: Cc1ccc2[nH]cc(C(=O)C(=O)NCCCNCCCCCCCCCCNCCCNC(=O)C(=O)c3c[nH]c4ccc(C)cc34)c2c1.O=C(O)C(F)(F)F.O=C(O)C(F)(F)F [Compound 20d]
qualifierSign: >
IC50 (µM): 36
//
compound: Cc1cccc2c(C(=O)C(=O)NCCCNCCCCCCCCCCNCCCNC(=O)C(=O)c3c[nH]c4c(C)cccc34)c[nH]c12.O=C(O)C(F)(F)F.O=C(O)C(F)(F)F [Compound 23d]
qualifierSign: >
IC50 (µM): 36
//
compound: COc1cccc2c(C(=O)C(=O)NCCCNCCCCCCCNCCCNC(=O)C(=O)c3c[nH]c4c(OC)cccc34)c[nH]c12.O=C(O)C(F)(F)F.O=C(O)C(F)(F)F [Compound 22b]
qualifierSign: =
IC50 (µM): 8.9
//
compound: O=C(NCCCNCCCCCCCCCCNCCCNC(=O)C(=O)c1c[nH]c2c(F)cccc12)C(=O)c1c[nH]c2c(F)cccc12.O=C(O)C(F)(F)F.O=C(O)C(F)(F)F [Compound 21d]
qualifierSign: =
IC50 (µM): 4.7
//
compound: COc1cccc2c(C(=O)C(=O)NCCCNCCCCCCCCCCNCCCNC(=O)C(=O)c3c[nH]c4c(OC)cccc34)c[nH]c12.O=C(O)C(F)(F)F.O=C(O)C(F)(F)F [Compound 22d]
qualifierSign: >
IC50 (µM): 35
//
compound: COc1ccc2[nH]cc(C(=O)C(=O)NCCCNCCCCCCCCNCCCNC(=O)C(=O)c3c[nH]c4ccc(OC)cc34)c2c1 [Compound 19c]
qualifierSign: =
IC50 (µM): 18
//
compound: O=C(NCCCNCCCCCCCCCCCCNCCCNC(=O)C(=O)c1c[nH]c2c(F)cccc12)C(=O)c1c[nH]c2c(F)cccc12.O=C(O)C(F)(F)F.O=C(O)C(F)(F)F [Compound 21e]
qualifierSign: =
IC50 (µM): 6.4
//
compound: Cc1cccc2c(C(=O)C(=O)NCCCNCCCCCCCNCCCNC(=O)C(=O)c3c[nH]c4c(C)cccc34)c[nH]c12.O=C(O)C(F)(F)F.O=C(O)C(F)(F)F [Compound 23b]
qualifierSign: >
IC50 (µM): 38
//
compound: Cc1ccc2[nH]cc(C(=O)C(=O)NCCCNCCCCCCNCCCNC(=O)C(=O)c3c[nH]c4ccc(C)cc34)c2c1.O=C(O)C(F)(F)F.O=C(O)C(F)(F)F [Compound 20a]
qualifierSign: >
IC50 (µM): 39
//
compound: COc1ccc2[nH]cc(C(=O)C(=O)NCCCNCCCCCCNCCCNC(=O)C(=O)c3c[nH]c4ccc(OC)cc34)c2c1.O=C(O)C(F)(F)F.O=C(O)C(F)(F)F [Compound 19a]
qualifierSign: >
IC50 (µM): 37
//
compound: Cc1ccc2[nH]cc(C(=O)C(=O)NCCCNCCCCCCCCNCCCNC(=O)C(=O)c3c[nH]c4ccc(C)cc34)c2c1.O=C(O)C(F)(F)F.O=C(O)C(F)(F)F [Compound 20c]
qualifierSign: >
IC50 (µM): 37
//
compound: O=C(NCCCNCCCCCCCCNCCCNC(=O)C(=O)c1c[nH]c2ccccc12)C(=O)c1c[nH]c2ccccc12 [Compound 17c]
qualifierSign: =
IC50 (µM): 10
//
compound: O=C(NCCCNCCCCCCCNCCCNC(=O)C(=O)c1c[nH]c2ccc(Br)cc12)C(=O)c1c[nH]c2ccc(Br)cc12.O=C(O)C(F)(F)F.O=C(O)C(F)(F)F [Compound 18b]
qualifierSign: =
IC50 (µM): 13
//
compound: Cc1cccc2c(C(=O)C(=O)NCCCNCCCCCCNCCCNC(=O)C(=O)c3c[nH]c4c(C)cccc34)c[nH]c12.O=C(O)C(F)(F)F.O=C(O)C(F)(F)F [Compound 23a]
qualifierSign: >
IC50 (µM): 39
//
compound: COc1ccc2[nH]cc(C(=O)C(=O)NCCCNCCCCCCCCCCNCCCNC(=O)C(=O)c3c[nH]c4ccc(OC)cc34)c2c1.O=C(O)C(F)(F)F.O=C(O)C(F)(F)F [Compound 19d]
qualifierSign: =
IC50 (µM): 6.8
//
compound: Cc1cccc2c(C(=O)C(=O)NCCCNCCCCCCCCNCCCNC(=O)C(=O)c3c[nH]c4c(C)cccc34)c[nH]c12.O=C(O)C(F)(F)F.O=C(O)C(F)(F)F [Compound 23c]
qualifierSign: >
IC50 (µM): 37

###

Tested on: P. aeruginosa ATCC 27853
Assay: Antibiotic potentiation (MIC of antibiotics in the presence of synergizing compounds), P. aeruginosa
Type: cell-based, Pseudomonas aeruginosa
Settings: concentration required to restore doxycycline activity at 2 µg/mL (4.5 µM) against P. aeruginosa ATCC 27853
measuredParameter: Conc (µM) for Potentiation of doxycycline

molecule: O=C(NCCCNCCCCCCCCCCCCNCCCNC(=O)C(=O)c1c[nH]c2c(F)cccc12)C(=O)c1c[nH]c2c(F)cccc12.O=C(O)C(F)(F)F.O=C(O)C(F)(F)F [Compound 21e]
resultUnit: µM
qualifierSign: >
reportedResult: 200

molecule: Cc1ccc2[nH]cc(C(=O)C(=O)NCCCNCCCCCCCCCCCCNCCCNC(=O)C(=O)c3c[nH]c4ccc(C)cc34)c2c1.O=C(O)C(F)(F)F.O=C(O)C(F)(F)F [Compound 20e]
resultUnit: µM
qualifierSign: =
reportedResult: 400

molecule: COc1cccc2c(C(=O)C(=O)NCCCNCCCCCCCNCCCNC(=O)C(=O)c3c[nH]c4c(OC)cccc34)c[nH]c12.O=C(O)C(F)(F)F.O=C(O)C(F)(F)F [Compound 22b]
resultUnit: µM
qualifierSign: =
reportedResult: 100

molecule: COc1cccc2c(C(=O)C(=O)NCCCNCCCCCCNCCCNC(=O)C(=O)c3c[nH]c4c(OC)cccc34)c[nH]c12.O=C(O)C(F)(F)F.O=C(O)C(F)(F)F [Compound 22a]
resultUnit: µM
qualifierSign: =
reportedResult: 100

molecule: O=C(NCCCNCCCCCCCCCCNCCCNC(=O)C(=O)c1c[nH]c2ccccc12)C(=O)c1c[nH]c2ccccc12.O=C(O)C(F)(F)F.O=C(O)C(F)(F)F [Compound 17d]
resultUnit: µM
qualifierSign: =
reportedResult: 58

molecule: Cc1ccc2[nH]cc(C(=O)C(=O)NCCCNCCCCCCCCCCNCCCNC(=O)C(=O)c3c[nH]c4ccc(C)cc34)c2c1.O=C(O)C(F)(F)F.O=C(O)C(F)(F)F [Compound 20d]
resultUnit: µM
qualifierSign: =
reportedResult: 400

molecule: O=C(NCCCNCCCCCCCCCCCCNCCCNC(=O)C(=O)c1c[nH]c2ccccc12)C(=O)c1c[nH]c2ccccc12 [Compound 17e]
resultUnit: µM
qualifierSign: =
reportedResult: 6.25

molecule: O=C(NCCCNCCCCCCCCCCNCCCNC(=O)C(=O)c1c[nH]c2ccc(Br)cc12)C(=O)c1c[nH]c2ccc(Br)cc12.O=C(O)C(F)(F)F.O=C(O)C(F)(F)F [Compound 18d]
resultUnit: µM
qualifierSign: =
reportedResult: 25

molecule: COc1ccc2[nH]cc(C(=O)C(=O)NCCCNCCCCCCCNCCCNC(=O)C(=O)c3c[nH]c4ccc(OC)cc34)c2c1.O=C(O)C(F)(F)F.O=C(O)C(F)(F)F [Compound 19b]
resultUnit: µM
qualifierSign: =
reportedResult: 114

molecule: O=C(NCCCNCCCCCCNCCCNC(=O)C(=O)c1c[nH]c2ccc(Br)cc12)C(=O)c1c[nH]c2ccc(Br)cc12.O=C(O)C(F)(F)F.O=C(O)C(F)(F)F [Compound 18a]
resultUnit: µM
qualifierSign: =
reportedResult: 6.5

molecule: O=C(NCCCNCCCCCCCCCCNCCCNC(=O)C(=O)c1c[nH]c2c(F)cccc12)C(=O)c1c[nH]c2c(F)cccc12.O=C(O)C(F)(F)F.O=C(O)C(F)(F)F [Compound 21d]
resultUnit: µM
qualifierSign: =
reportedResult: 100

###

Experiment: Cytotoxicity assay HEK293
Format: cell-based, human
Settings: human, HEK293 cells, mean (n = 2), read-out: Cyto. IC50 (concentration of compound at 50% cytotoxicity)
pIC50: −log10 of the molar value.
Documented pIC50 across a set of compounds

compound: O=C(NCCCNCCCCCCCCNCCCNC(=O)C(=O)c1c[nH]c2c(F)cccc12)C(=O)c1c[nH]c2c(F)cccc12.O=C(O)C(F)(F)F.O=C(O)C(F)(F)F [Compound 21c]
pIC50: 5.04

compound: O=C(NCCCNCCCCCCCNCCCNC(=O)C(=O)c1c[nH]c2ccccc12)C(=O)c1c[nH]c2ccccc12.O=C(O)C(F)(F)F.O=C(O)C(F)(F)F [Compound 17b]
pIC50: 4.51

compound: O=C(NCCCNCCCCCCCCCCNCCCNC(=O)C(=O)c1c[nH]c2ccccc12)C(=O)c1c[nH]c2ccccc12.O=C(O)C(F)(F)F.O=C(O)C(F)(F)F [Compound 17d]
pIC50: 5.31
